Where do these numbers come from? They come from patent US20050282743A1.

- study-system: T1, GST-KIAA0807(S) PDZ domain 1 (Homo sapiens (Human)), Q6P0Q8
- T1 chain: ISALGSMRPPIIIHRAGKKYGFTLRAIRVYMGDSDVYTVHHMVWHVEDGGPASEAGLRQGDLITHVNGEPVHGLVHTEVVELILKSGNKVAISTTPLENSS
- protocol-details: G' assay; also: key of the grades not given here
Please provide measured Classification for the entries that follow.
Enter your answer as a number in A450 class; do not include the unit.

According to the records, this binder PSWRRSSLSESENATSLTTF (modifications not checked) [BLR-1] displays Classification of 2

The value of Classification measured for the binder LNETTETQRTLLNGDLQTSI (modifications not checked) [SSTR2 (somatostatin recepor 2)] turned out to be 2

Lab note: measured Classification of GTSDMKDLVGNIEQNEHSVI (modifications not checked) [Mannose Receptor] was 1

Note to self: Classification recorded for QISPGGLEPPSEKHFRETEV (modifications not checked) [TAX] was 5

Measured Classification, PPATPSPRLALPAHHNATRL (modifications not checked) [Na+/Pi cotransporter 2] : 5

Entry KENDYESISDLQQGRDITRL (modifications not checked) [PAG] — recorded Classification = 5

So for VISKATPALPTVSISSSAEV (modifications not checked) [Clasp-1] , the logged Classification turned out to be 1

The recorded Classification for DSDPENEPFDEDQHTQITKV (modifications not checked) [PTEN] is 5

Lab book: Classification of IVFIIHSFLSAKVTRLGLLA (modifications not checked) [alpha-1-syntrophin] noted as 1

Record PVYIVQEMPPQSPANIYYKV (modifications not checked) [ephrin B1] . Reported Classification: 1

Form: binder = AWDDSARAAGGQGLHVTAL (modifications not checked) [LPAP] ; Classification = 5

So for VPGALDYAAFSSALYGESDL (modifications not checked) [a-actinin 2] , the logged Classification turned out to be 5

Measured Classification, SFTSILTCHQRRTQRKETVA (modifications not checked) [GluR5-2 (rat)] : 1

Quick note, Classification for KDSRPSFVGSSSGHTSTTL (modifications not checked) [CDw128B] landed at 5

Form: binder = DAKLKSDGTIAAITEKETHF (modifications not checked) [GABA transporter 3] ; Classification = 1

The value of Classification measured for the binder QPTPTLGLNLGNDPDRGTSI (modifications not checked) [GluR delta-2] turned out to be 4

# Classification (binder: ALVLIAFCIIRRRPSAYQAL (modifications not checked) [CD68] ) is 5

Item: RELVDRGEVRQFTLRHWLKV (modifications not checked) [Dopamine transporter] | Classification: 4

The recorded Classification for entry STDNLVRPFMDTLASHQLYI (modifications not checked) [presenilin-2] equals 1

Classification reported for this binder NGGFAVDKSDTISFTQTSQF (modifications not checked) [glutamate transporter 3] : 1

Query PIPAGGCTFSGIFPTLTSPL (modifications not checked) [KIA 1481] yields Classification of 5

# Classification of LLNVLQRQELGDGLDDEIAV (modifications not checked) [CAPON (carboxyl-terminal PDZ ligand of neuronal nitric oxide synthase) mRNA] = 1
